Please respond with reported Kd for every item in the list.
- subject_of_test: T1, His9G-tagged human CD27 recombinant protein (human, UniProt P26842 21-191)
- T1 construct: In-house, transient transfection of HEK293 cells; also called Human CD27/His
- assay_name: SPR Biacore 4000, antibody captured on anti-human Fc, His9G-tagged CD27 injected, 1:1 fit;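 further: Double-referenced SPR (blank anti-Fc surface and buffer injection subtracted), KD derived from association and dissociation rate constants, with human and cynomolgus CD27 as analytes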
Numbers only, in nM.

# map each binder to its Kd
1. hCD27.131A VH7VL8 huIgG4 (antibody, V domains shown) VH: EIQLVQSGAEVKKPGASVKISCKASGYTFTNYGMNWVKQAPGQGLKWMGWINTNTGEPTYAEEFKGRFTFTLDTSATTAYLEISSLRSEDTAVYYCAREGDAMDYWGQGTTVTVSS VL: EIVLTQSPATLSASPGERVTLSCSASSSVSYMHWYQQKPGQAPKRWIYDTSKLASGVPARFSGSGSGTDYSLTISSMEPEDFAVYYCQQWNSYPFTFGQGTKLEIK
2. hCD27.131A VH6VL7 huIgG1 (antibody, V domains shown) VH: EIQLVQSGAEVKKPGASVKVSCKASGYTFTNYGMNWVKQAPGQGLKWMGWINTNTGEPTYAEEFKGRFTFTLDTSISTAYMELSSLRSEDTAVYYCAREGDAMDYWGQGTTVTVSS VL: EIVLTQSPATLSLSPGERATLSCSASSSVSYMHWYQQKPGQAPKRWIYDTSKLASGVPARFSGSGSGTSYSLTISSLEPEDFATYYCQQWNSYPFTFGQGTKLEIK
3. hCD27.131A VH8VL8 huIgG1 (antibody, V domains shown) VH: EIQLVQSGAEVKKPGASVKVSCKASGYTFTNYGMNWVKQAPGQGLKWMGWINTNTGEPTYAEEFKGRFTFTLDTSISTAYMELSSLRNEDTAVYYCAREGDAMDYWGQGTTVTVSS VL: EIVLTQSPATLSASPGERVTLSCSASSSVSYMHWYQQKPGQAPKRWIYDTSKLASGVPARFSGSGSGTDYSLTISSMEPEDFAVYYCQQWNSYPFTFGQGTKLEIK
4. hCD27.131A VH8VL7 huIgG4 (antibody, V domains shown) VH: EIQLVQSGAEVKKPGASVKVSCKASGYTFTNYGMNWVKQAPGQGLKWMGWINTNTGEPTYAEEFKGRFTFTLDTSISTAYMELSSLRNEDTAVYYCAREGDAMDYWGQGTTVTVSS VL: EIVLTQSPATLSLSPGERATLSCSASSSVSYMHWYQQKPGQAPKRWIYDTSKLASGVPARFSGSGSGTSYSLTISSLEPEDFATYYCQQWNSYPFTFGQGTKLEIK
5. hCD27.131A VH7VL6 huIgG4 (antibody, V domains shown) VH: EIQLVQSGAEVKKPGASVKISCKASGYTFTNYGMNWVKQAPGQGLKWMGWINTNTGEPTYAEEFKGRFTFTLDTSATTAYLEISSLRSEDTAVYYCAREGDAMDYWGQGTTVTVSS VL: EIVLTQSPATLSLSPGERATLSCSASSSVSYMHWYQQKPGQAPKRWIYDTSKLASGVPARFSGSGSGTDYSLTISSLEPEDFAVYYCQQWNSYPFTFGQGTKLEIK

result:
[58.5, 71.7, 61, 89.3, 65.7]

Cited source for all entries: patent US20180086841A1
